Values compiled from patent US12583841B2.

# assay.remarks: Pharmacokinetic parameters in SD rat plasma
# Format: in vivo
# test.settings: male, Sprague-Dawley (SD), plasma, po, p.o. 10 mg/kg
quantity.measured: AUC(0-t) (µM·h)
Provide only the numeric value, understood in µM·h.

Record COc1ccc(-n2nccn2)c(C(=O)N2C(c3nc4ccc(OC)cc4[nH]3)CC3CC32)c1 (stereo not shown) . Reported AUC(0-t): 1.45

---

# assay.remarks: Pharmacokinetic parameters in Beagle dog plasma
# Format: in vivo
# test.settings: male, plasma, po, p.o. 5 mg/kg
quantity.measured: Cmax (µM)
Provide only the numeric value, understood in µM.

Record COc1ccc(-n2nccn2)c(C(=O)N2C(c3nc4ccc(OC)cc4[nH]3)CC3CC32)c1 (stereo not shown) [Compound 8] . Reported Cmax: 6.18
